- STUDY SYSTEM: Recombinant human his-tagged IGF R extracellular domain protein (human) (UniProt P08069)
- METHOD NOTES: SPR, Ab captured via anti-huIgG Fc, dissociation at pH 6
Each item that follows carries a reported log10 of koff.
Recall that a logarithmic scale is used here: each number is log10 of koff in s⁻¹.

Look over these answered cases.
VRDN-02019 (antibody, V domains shown) VH: QVQLQESGPGLVKPSETLSLTCTVSGYSITGGYLWNWIRQPPGKGLEWIGYISYDGTHNYKPSLKDRVTISRDTSKNQFSLKLSSVTAADTAVYYCARYGRVFFDYWGQGTLVTVSS VL: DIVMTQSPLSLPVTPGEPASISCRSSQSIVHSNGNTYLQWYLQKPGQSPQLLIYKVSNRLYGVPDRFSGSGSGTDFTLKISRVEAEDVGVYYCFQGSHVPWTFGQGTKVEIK : -4.00
VRDN-02014 (antibody, V domains shown) VH: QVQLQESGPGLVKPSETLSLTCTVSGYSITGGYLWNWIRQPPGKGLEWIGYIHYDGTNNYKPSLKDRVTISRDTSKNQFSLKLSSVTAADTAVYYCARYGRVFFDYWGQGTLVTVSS VL: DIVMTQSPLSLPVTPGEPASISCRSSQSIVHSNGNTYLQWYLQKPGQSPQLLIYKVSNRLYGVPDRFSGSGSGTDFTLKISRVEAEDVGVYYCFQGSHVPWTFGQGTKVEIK : -3.82
VRDN-02033 (antibody, V domains shown) VH: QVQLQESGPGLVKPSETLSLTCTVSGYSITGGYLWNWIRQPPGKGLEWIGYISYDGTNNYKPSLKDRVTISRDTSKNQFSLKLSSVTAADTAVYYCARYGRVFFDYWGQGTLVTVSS VL: DIVMTQSPLSLPVTPGEPASISCRSSQHIVHSNGNTYLQWYLQKPGQSPQLLIYKVSNRLYGVPDRFSGSGSGTDFTLKISRVEAEDVGVYYCFQGSHVPWTFGQGTKVEIK : -3.96
VRDN-02066 (antibody, V domains shown) VH: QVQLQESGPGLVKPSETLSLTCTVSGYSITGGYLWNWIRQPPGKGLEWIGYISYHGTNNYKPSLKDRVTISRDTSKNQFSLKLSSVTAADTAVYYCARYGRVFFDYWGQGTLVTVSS VL: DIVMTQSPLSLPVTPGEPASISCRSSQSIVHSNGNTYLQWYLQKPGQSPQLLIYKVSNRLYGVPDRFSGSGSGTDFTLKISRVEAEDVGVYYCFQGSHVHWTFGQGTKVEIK : -4.29
VRDN-02011 (antibody, V domains shown) VH: QVQLQESGPGLVKPSETLSLTCTVSGYSITGGYLWHWIRQPPGKGLEWIGYISYDGTNNYKPSLKDRVTISRDTSKNQFSLKLSSVTAADTAVYYCARYGRVFFDYWGQGTLVTVSS VL: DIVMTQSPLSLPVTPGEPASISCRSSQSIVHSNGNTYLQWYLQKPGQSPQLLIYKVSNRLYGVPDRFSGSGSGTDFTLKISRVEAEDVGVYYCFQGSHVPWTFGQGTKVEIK : -4.11

Inquiry: Reported log10 of koff, binder VRDN-02004 (antibody, V domains shown) VH: QVQLQESGPGLVKPSETLSLTCTVSGYSHTGGYLWNWIRQPPGKGLEWIGYISYDGTNNYKPSLKDRVTISRDTSKNQFSLKLSSVTAADTAVYYCARYGRVFFDYWGQGTLVTVSS VL: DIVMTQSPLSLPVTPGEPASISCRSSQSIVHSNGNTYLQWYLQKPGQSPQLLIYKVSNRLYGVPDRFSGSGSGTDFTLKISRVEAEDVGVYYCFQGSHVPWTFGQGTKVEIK : ____
Reply text: -3.23

Inquiry: Recorded log10 of koff for VRDN-02028 (antibody, V domains shown) VH: QVQLQESGPGLVKPSETLSLTCTVSGYSITGGYLWNWIRQPPGKGLEWIGYISYDGTNNYKPSLKDRVTISRDTSKNQFSLKLSSVTAADTAVYYCARYGRVFFDHWGQGTLVTVSS VL: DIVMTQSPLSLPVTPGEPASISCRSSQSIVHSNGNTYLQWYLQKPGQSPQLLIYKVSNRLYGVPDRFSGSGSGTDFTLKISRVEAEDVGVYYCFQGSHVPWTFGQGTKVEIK , please?
Reply text: -3.97

Where do the numbers come from? From patent US20240360227A1.
